# System: SF-295 CNS
# Experiment notes: NCI-60 one-dose screen, 48 h
# Condition set: 10 µM unless noted
The panel holds about 83,000 compounds, 20% with a hit somewhere; the sample as a whole holds those more often. Active and inactive are the calls of the source. Rule for the calls: active = growth percent below 10; inactive = the rest.
Possible outcomes: T (active), F (inactive)

| Molecule | Answer label |
| --- | --- |
| CC[C@]12C=CCN3CC[C@]4(C(=C(C(=O)OC)C1)Nc1cc(OC)c([C@@H]5[C@H]6O[C@H]6[C@@]6(CC)CC(C(=O)OC)=C7Nc8cc(OC)ccc8[C@@]78CCN5[C@@H]68)cc14)[C@@H]32 | F |
| Nc1nc(-c2ccccc2)c(N=Nc2ccc(Cl)cc2Cl)s1 | T |
| COc1ccc(C(=O)NNC(=O)CSc2nc3sc4c(c3c(=O)n2-c2ccc(Cl)cc2)CCCC4)cc1 | F |
| O=C1Nc2ccccc2/C1=C/C(=O)c1cc2ccccc2oc1=O | F |
| Cc1ccc(C(=O)Nc2cc(-c3ccccc3)cc(C(F)(F)F)c2)cc1C#Cc1cnc2cccnn12 | F |
| CNS(=O)(=O)N1CCc2c(Br)c3c(c(OC)c2C1CCc1ccccc1)OCO3 (stereo unspecified) | T |

* * *

# Test system: T-47D breast
# Experiment notes: NCI-60 one-dose screen, 48 h
# Condition set: 10 µM unless noted
This is part of a sample that, as a whole, favours compounds with a hit. Of some 83,000 tested, about 20% had one in any assay. The source made the active and inactive calls. Rule for the calls: active = growth percent below 10; inactive = the rest.
Possible outcomes: class 1 = active, class 0 = inactive

| Compound | Experimental target | Answer label |
| --- | --- | --- |
| O=C(NNC(=O)c1ccc(OCc2nc3ccc(Cl)cc3[nH]2)cc1)Nc1ccc(Cl)c(C(F)(F)F)c1 | T-47D breast | class 0 |
| COc1ccc(C(=O)c2c(N)c(C#N)cn2-c2ccc([N+](=O)[O-])cc2)cc1 | T-47D breast | class 0 |
| O=C1/C(=C/c2cccc3c2OCO3)Cc2c(F)cc(Br)cc21 | T-47D breast | class 0 |
| Cc1ccc(-c2cc(C(=O)N=Nc3c(O)[nH]c4ccc(F)cc34)c3ccccc3n2)cc1 | T-47D breast | class 0 |
| CCOC(=O)c1ccc(NC(=S)NC(=O)c2ccc(NC(=O)C(C)C)cc2OC)cc1 | T-47D breast | class 1 |
| CC(C)CN1C(=O)/C(=C\C(=O)c2cc3ccccc3oc2=O)c2ccccc21 | T-47D breast | class 0 |
| COc1ccc(Nc2nnc(-c3c[nH]c4ccccc34)o2)cc1 | T-47D breast | class 0 |
| CCC(=O)c1cc(C(=O)OC)c2ccc3c4ccccc4ccc3n12 | T-47D breast | class 0 |
| O=C1CC(c2ccc(I)cc2)OC2C=Cc3ccccc3C12 (configuration not stated) | T-47D breast | class 0 |
| OCCn1cc(-c2nc3ccc4[nH]ncc4c3c3c2CCCC3)cn1 | T-47D breast | class 0 |
| COc1ccc(NC(=O)Cn2c(/C=C/c3cccc(Br)c3)nc3ccccc3c2=O)cc1 | T-47D breast | class 1 |
| Cn1cc(-c2cc(N)n3nc(-c4c[nH]c5ccc(F)cc45)cc3n2)c2cccnc21 | T-47D breast | class 1 |
| C#CCCCNCCNc1ccnc2cc(Cl)ccc12 | T-47D breast | class 0 |
| C#CCN(C)CCCOc1ccc(N(C)C(=O)c2cc(C(C)C)c(O)cc2O)cc1Cl | T-47D breast | class 0 |
| N/C(=N\c1nc2ccccc2s1)NC(=O)Nc1ccccc1F | T-47D breast | class 0 |
| CCc1ccccc1-c1nc(CN[C@@H]2C[C@@H]3C[C@H]([C@H]2C)C3(C)C)c(C)o1 | T-47D breast | class 1 |
| CCOc1ccccc1[C@H]1C(C(=O)c2ccc(Cl)cc2)C2(N[C@@H]1c1ccccc1)C(=O)Nc1ccc(Br)cc12 (some centres not stated) | T-47D breast | class 0 |
| Nc1nnc(CS(=O)(=O)c2ccccc2)s1 | T-47D breast | class 0 |
| CN(C(=O)CN1C(=O)/C(=C/c2ccco2)SC1=S)C1CCS(=O)(=O)C1 (configuration not stated) | T-47D breast | class 0 |
| COc1c2c(c(Br)c3c1C(CCc1ccccc1)N(C)CC3)OCO2 (configuration not stated) | T-47D breast | class 0 |
| N#CC1=C(c2ccco2)Nc2c(c(-c3ccccc3)nn2-c2ccccc2)C12C(=O)Nc1ccc(Cl)cc12 (configuration not stated) | T-47D breast | class 0 |
| COc1ccc(N=Nc2c(N)nn3c(-c4cc5ccccc5oc4=O)ccnc23)cc1 | T-47D breast | class 0 |

* * *

Listed next: entries and their corresponding growth.
# Test system: M14 melanoma
# Experiment notes: NCI-60 one-dose screen, 48 h (100 = growth as untreated, 0 = no growth, -100 = all killed)
# Condition set: 10 µM unless noted
This is part of a sample that, as a whole, favours compounds with a hit. Of some 83,000 tested, about 20% had one in any assay.

| Compound | growth (%) |
| --- | --- |
| O=C(N=Nc1c(O)[nH]c2ccc(Br)cc12)c1ccc2nc(-c3ccc(Cl)cc3)[nH]c2c1 | -3.86 |
| Cc1cccc(NCC(=O)N2CCN(c3ncnc4c3cnn4-c3ccccc3)CC2)c1 | 62.2 |
| Cc1ccc(S(=O)(=O)N(CCn2ccnc2[N+](=O)[O-])CCn2ccnc2[N+](=O)[O-])cc1 | 97.6 |
| OC1CCC(Cn2c(C(F)(F)F)cc3c(Cl)ncnc32)CC1 (centres undefined) | -44.1 |
| COC(=O)c1cccc(Oc2ccc(NC(=O)Nc3cc(C(F)(F)F)ccc3F)cc2)c1 | 84.9 |
| COc1cc(C=O)ccc1OC(=O)c1cc(-c2ccc(C)cc2)n(-c2ccc(S(C)(=O)=O)cc2)n1 | 109 |
| CCOC(=O)/C(F)=C/C1CC1C1CCN(C(=O)OC(C)(C)C)CC1 (centres undefined) | 106 |
| COc1ccc2oc(=O)c(-c3csc(N/N=C(\C)c4cc(OC)c(OC)c(OC)c4)n3)cc2c1 | 91.9 |
| COc1ccc(C(=O)c2c(N)c(C#N)cn2-c2ccc([N+](=O)[O-])cc2)cc1 | 113 |
| O=C(CSc1nnc(-c2ccc(-c3nc4ccccc4[nH]3)cc2)o1)Nc1ccccc1 | 60.3 |
| COc1ccc(-c2cc(C(=O)Oc3ccc(C=O)cc3OC)nn2-c2ccc(S(C)(=O)=O)cc2)cc1 | 117 |
| Cn1cc(-c2cc(N)n3nc(-c4c[nH]c5ccccc45)cc3n2)c2cc(Br)ccc21 | -65.7 |
| COc1c(B(O)O)cccc1-c1nc2ccc3cn[nH]c3c2c2c1CCCC2 | 88.4 |
| Cc1cnc2ccc(Oc3ccccc3-c3ccccc3)nn12 | 99.6 |
| O=C(Cc1c(-c2ccccc2[N+](=O)[O-])n(-c2ncnc3c2c(-c2ccccc2)c(-c2ccccc2)n3Cc2ccccc2)[nH]c1=O)c1ccc(Cl)c(Cl)c1 | 14.6 |
| COC(=O)c1cc(C(=O)C(C)(C)C)n2c3ccccc3c3ccccc3c12 | 96.7 |
| COc1ccc(N=Nc2c(N)nn3c(-c4ccc5c(c4)C=S=C5)ccnc23)cc1 | 58.9 |
| O=C(Nc1ccc(S(=O)(=O)N2CCCCC2)cc1)C(Cl)Cl | 112 |
| Cn1cc(-c2cc(N)n3nc(-c4c[nH]c5ccccc45)cc3n2)c2cc(F)ccc21 | -0.365 |
| CC1=C(C(=O)OCc2ccccc2)C(c2cccc3ccccc23)n2c(nc3ccccc32)N1 (centres undefined) | 23.9 |
| NNc1ncnc2sc3c(c12)CCN(Cc1ccccc1)C3 | 62.9 |
| Oc1ccc(F)c(Nc2nc(SCCN3CCOCC3)nc3c2cnn3CC(Cl)c2ccc(Br)cc2)c1 (centres undefined) | 18.8 |
| Cc1ccc(C(=O)Nc2ccc(-n3ccnc3)c(C(F)(F)F)c2)cc1C#Cc1cnc2cccnn12 | 1.02 |
| C[C@H]1[C@@H](CC(=O)N[C@@H](Cc2coc3ccccc23)B(O)O)O[C@@H]2OC3(C)CC[C@H]4[C@H](C)CC[C@@H]1[C@@]24O3 | -33.7 |
| O=C(NN1C(=O)/C(=C/C=C/c2ccc([N+](=O)[O-])o2)SC1=S)c1ccc([N+](=O)[O-])cc1 | -82.5 |
| O=C1CCC(N2C(=O)c3cccc(NCCCCCC(=O)N4CCN(c5ccc6nc7c(nc6c5C(F)(F)F)C(=O)c5ncccc5C7=O)CC4)c3C2=O)C(=O)N1 (centres undefined) | -87.2 |
| C#CCN(C)CCCOc1ccc(N(C)C(=O)c2cc(C(C)C)c(O)cc2O)cc1Cl | 0.868 |
| COc1cccc(/C=C/c2nc3ccccc3c(=O)n2CC(=O)Nc2ccccc2)c1 | 47.8 |
| COc1cc(/C=C/C(=O)c2cnn(-c3cc(=O)[nH]c4ccc(Br)cc34)c2C)cc(OC)c1OC | -49.8 |
| c1n[nH]cc1-c1nc2ccc3cn[nH]c3c2c2c1CCCC2 | 93.2 |
| NS(=O)(=O)c1cccc(Nc2nc(SCC(=O)c3ccc(F)cc3)nc3ccccc23)c1 | 23.3 |
| Nc1cc(-c2c[nH]c3ccc(Cl)cc23)nc2cc(-c3c[nH]c4ccccc34)nn12 | -25.8 |
| COc1cc(/C=N/NC(=O)c2ccc(OCc3nc4ccc(C)cc4[nH]3)cc2)cc(OC)c1OC | 33 |
| C/C(=N/O)c1ccc(NC(=O)CSc2nnc(-c3ccc4nc(-c5ccc(Cl)cc5)[nH]c4c3)o2)cc1 | 22.2 |

Source: PubChem BioAssay (NCI)
